Some binders, each annotated with its measured peptide exchange yield.
Target: T1, HLA-A*24:02 (human)
T1 construct: Peptide-receptive MHC class I monomer after UV cleavage of a UV-sensitive ligand
Experiment: UV-ligand exchange, anti-b2m ELISA; peptide exchange yield grade

What does the data say about its peptide exchange yield? Entry: `FYDLSIQSF`
≥ 75%

// next record `IYQFARLDY`
20 to 50%

// next record `FFTDKTLSF`
≥ 75%

// next record `VYTDISHHF`
≥ 75%

// next record `VFHDHTYHL`
≥ 75%

The values you see were collected from patent US20220098269A1.
